System: ITK
test.parameters: concentration: 1 μM,replicates: in singlicate; n = 1;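 also: KINOMEscan kinase panel screen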
Category scheme (%Inh): bottom bin (below 3%), middle bin (3% to below 20%), top bin (20% or more)

[
  {
    "smiles.input": "CNC(=O)c1ccccc1Nc1nc(Nc2cccc(CS(C)(=O)=O)c2)ncc1C.O=CO",
    "group": "top bin"
  },
  {
    "smiles.input": "O=C(Nc1cccc(C(F)(F)F)c1)c1cccc(Oc2ccc3nccn3n2)c1",
    "group": "top bin"
  },
  {
    "smiles.input": "O=c1[nH]cc(-c2ccc(O)cc2)c2sc(-c3ccncc3)cc12",
    "group": "bottom bin"
  },
  {
    "smiles.input": "CCn1c(-c2nonc2N)nc2cncc(Br)c21",
    "group": "bottom bin"
  },
  {
    "smiles.input": "Cl.Nc1n[nH]c2cc(-c3ccccn3)ccc12",
    "group": "middle bin"
  },
  {
    "smiles.input": "Cc1cccc(-c2nc(Nc3ccncc3)c3sccc3n2)n1",
    "group": "middle bin"
  },
  {
    "smiles.input": "COC(=O)c1cccc(NC(=O)NC2CCN(c3ccnc(NCc4ccc(F)cc4)n3)CC2)c1",
    "group": "middle bin"
  },
  {
    "smiles.input": "Cl.c1ccc(Oc2ccc(Nc3ccnc4cc(-c5ccc(CN6CCNCC6)o5)ccc34)cc2)nc1",
    "group": "bottom bin"
  },
  {
    "smiles.input": "COC(=O)Nc1nc2cc(Oc3ccc(NC(=O)Nc4cc(C(F)(F)F)ccc4Cl)cc3)ccc2[nH]1.Cl",
    "group": "middle bin"
  },
  {
    "smiles.input": "COc1cccc(OC)c1C(=O)Nc1cccc(-c2nn3ccccc3c2-c2ccnc(Nc3cccc(F)c3)n2)c1",
    "group": "top bin"
  },
  {
    "smiles.input": "CSc1nccc(-c2c(-c3ccc(F)cc3)ncn2CCCN2CCOCC2)n1.Cl",
    "group": "middle bin"
  }
]

====

Test system: PDGFRA
test.parameters: concentration: 1 μM,replicates: in singlicate; n = 1

[
  {
    "smiles.input": "CS(=O)(=O)c1cccc(CNc2nc(Nc3ccc4c(c3)[C@@H]3C[C@@H]4CNC3=O)ncc2C(F)(F)F)c1",
    "measured.on": "PDGFRA",
    "%Inh / %": 9
  },
  {
    "smiles.input": "OCCn1cc(-c2cnc3nnn(Cc4ccc5ncccc5c4)c3n2)cn1",
    "measured.on": "PDGFRA",
    "%Inh / %": 0
  },
  {
    "smiles.input": "C[C@@H](Oc1cc(-n2cnc3cc(-c4ccncc4)ccc32)sc1C(N)=O)c1ccccc1Cl",
    "measured.on": "PDGFRA",
    "%Inh / %": 67
  },
  {
    "smiles.input": "C[C@@H]1CNc2c(sc3ccc4nc(-c5ccc(O)cc5)ccc4c23)C(=O)N1",
    "measured.on": "PDGFRA",
    "%Inh / %": 42
  }
]

====

We begin with a simple list: items and their reported %Inh.
System: PLK1
test.parameters: concentration: 1 μM,replicates: in singlicate; n = 1

[
  {
    "compound": "Cn1cc(-c2cccc3c(N)c(C(N)=O)nnc23)cn1",
    "measured.on": "PLK1",
    "unit.tag": "%",
    "%Inh": 14
  },
  {
    "compound": "COc1cc(Nc2nccc(N3CCC(NC(=O)c4cccc(C#N)c4)C3)n2)cc(OC)c1OC (centres unmarked)",
    "measured.on": "PLK1",
    "unit.tag": "%",
    "%Inh": 0
  },
  {
    "compound": "CC(C)S(=O)(=O)N1CCN(Cc2ccc3c(c2)nc(NC(=O)c2ccsc2)n3C[C@H](O)c2ccccc2)CC1",
    "measured.on": "PLK1",
    "unit.tag": "%",
    "%Inh": 0
  },
  {
    "compound": "CCOC(=O)N1CCC(n2cnc(-c3ccc(F)cc3)c2-c2ccnc(N)n2)CC1",
    "measured.on": "PLK1",
    "unit.tag": "%",
    "%Inh": 23
  },
  {
    "compound": "CSc1nccc(-c2c(-c3ccc(F)cc3)ncn2CCCN2CCOCC2)n1.Cl",
    "measured.on": "PLK1",
    "unit.tag": "%",
    "%Inh": 33
  },
  {
    "compound": "CC(C(=O)NC1CCN(c2ccnc(Nc3ccc(F)cc3)n2)C1)c1ccc(Cl)cc1 (centres unmarked)",
    "measured.on": "PLK1",
    "unit.tag": "%",
    "%Inh": 0
  },
  {
    "compound": "CC(=O)c1c(-c2ccncc2)[nH]c(-c2ccncc2)c1C",
    "measured.on": "PLK1",
    "unit.tag": "%",
    "%Inh": 18
  },
  {
    "compound": "COc1cccc(CNC(=O)NC2CCN(c3ccnc(Nc4cc(OC)c(OC)c(OC)c4)n3)C2)c1 (centres unmarked)",
    "measured.on": "PLK1",
    "unit.tag": "%",
    "%Inh": 0
  }
]
